# Assay setup: in acetonitrile, 298.15 K
Value kind: solubility (mole fraction)
No unit in the answer, only the number.

[Q] Given the entry `CC(=O)N[C@@H](CCC(N)=O)C(=O)O` , report its measured solubility (mole fraction).
[A] 0.000152

====

# Assay setup: in ethanol, 293.15 K
Value kind: solubility (mole fraction)

[Q] Given the entry `CC(=O)N[C@@H](CCC(N)=O)C(=O)O` , report its measured solubility (mole fraction).
[A] 0.000461

====

# Assay setup: in n-propanol, 298.15 K
Value kind: solubility (mole fraction)
No unit in the answer, only the number.

[Q] Given the entry `CC(=O)N[C@@H](CCC(N)=O)C(=O)O` , report its measured solubility (mole fraction).
[A] 0.000471

====

# Assay setup: in water, 318.15 K
Value kind: solubility (mole fraction)
No unit in the answer, only the number.

[Q] Given the entry `CC(=O)N[C@@H](CCC(N)=O)C(=O)O` , report its measured solubility (mole fraction).
[A] 0.00587

====

# Assay setup: in ethanol, 283.15 K
Value kind: solubility (mole fraction)
No unit in the answer, only the number.

[Q] Given the entry `CC(=O)N[C@@H](CCC(N)=O)C(=O)O` , report its measured solubility (mole fraction).
[A] 0.000347

====

# Assay setup: in n-propanol, 308.15 K
Value kind: solubility (mole fraction)
No unit in the answer, only the number.

[Q] Given the entry `CC(=O)N[C@@H](CCC(N)=O)C(=O)O` , report its measured solubility (mole fraction).
[A] 0.00053

====

# Assay setup: in sec-butanol, 308.15 K
Value kind: solubility (mole fraction)

[Q] Given the entry `CC(=O)N[C@@H](CCC(N)=O)C(=O)O` , report its measured solubility (mole fraction).
[A] 0.000605

====

# Assay setup: in 2-butanone, 313.15 K
Value kind: solubility (mole fraction)
No unit in the answer, only the number.

[Q] Given the entry `CC(=O)N[C@@H](CCC(N)=O)C(=O)O` , report its measured solubility (mole fraction).
[A] 0.000564

====

# Assay setup: in 2-butanone, 283.15 K
Value kind: solubility (mole fraction)
No unit in the answer, only the number.

[Q] Given the entry `CC(=O)N[C@@H](CCC(N)=O)C(=O)O` , report its measured solubility (mole fraction).
[A] 0.000381

====

# Assay setup: in acetonitrile, 318.15 K
Value kind: solubility (mole fraction)
No unit in the answer, only the number.

[Q] Given the entry `CC(=O)N[C@@H](CCC(N)=O)C(=O)O` , report its measured solubility (mole fraction).
[A] 0.000205

====

# Assay setup: in n-butanol, 318.15 K
Value kind: solubility (mole fraction)
No unit in the answer, only the number.

[Q] Given the entry `CC(=O)N[C@@H](CCC(N)=O)C(=O)O` , report its measured solubility (mole fraction).
[A] 0.000439

====

# Assay setup: in methanol, 303.15 K
Value kind: solubility (mole fraction)
No unit in the answer, only the number.

[Q] Given the entry `CC(=O)N[C@@H](CCC(N)=O)C(=O)O` , report its measured solubility (mole fraction).
[A] 0.00176

====

# Assay setup: in ethanol, 288.15 K
Value kind: solubility (mole fraction)
No unit in the answer, only the number.

[Q] Given the entry `CC(=O)N[C@@H](CCC(N)=O)C(=O)O` , report its measured solubility (mole fraction).
[A] 0.000389

====

# Assay setup: in acetonitrile, 283.15 K
Value kind: solubility (mole fraction)
No unit in the answer, only the number.

[Q] Given the entry `CC(=O)N[C@@H](CCC(N)=O)C(=O)O` , report its measured solubility (mole fraction).
[A] 0.000116
